Data origin, for the record: the supplement of paper PMC11061612

Consider the following compounds; for each one, report its Bliss excess.
# Test system: SKN-3 (Head and Neck Carcinoma);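 also: after 72 h of two-drug dosing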
# method: Bliss excess, mean over the matrix (fraction); higher = more synergy
Number only, no unit.

Query: Please look up its Bliss excess: NC1(C(=O)N[C@@H](CCO)c2ccc(Cl)cc2)CCN(c2ncnc3[nH]ccc23)CC1 [Capivasertib] + CCN(CCO)CCCOc1ccc2c(Nc3cc(CC(=O)Nc4cccc(F)c4)[nH]n3)ncnc2c1 [AZD2811] (first compound max 10 µM, 7x7, partner max 1 µM)
Reply: -0.0524

Query: Request: CN(CCO)CC[C@H](CSc1ccccc1)Nc1ccc(S(=O)(=O)NC(=O)c2ccc(N3CCC([C@@H](O)c4ccccc4-c4ccc(Cl)cc4)CC3)cc2)cc1S(=O)(=O)C(F)(F)F [AZD4320] + C[C@@H](Nc1cc(F)cc(F)c1)c1cc(C(=O)N(C)C)cc2c(=O)cc(N3CCOCC3)oc12 [AZD8186] (first compound max 1 µM, 7x7, partner max 3 µM)
Reply: 0.0112

Query: Also, CN(CCO)CC[C@H](CSc1ccccc1)Nc1ccc(S(=O)(=O)NC(=O)c2ccc(N3CCC([C@@H](O)c4ccccc4-c4ccc(Cl)cc4)CC3)cc2)cc1S(=O)(=O)C(F)(F)F [AZD4320] + CN(C)CCCOc1ccc(-c2ccc3ncc4c(c3c2)n(C2CCOCC2)c(=O)n4C)cn1 [AZD0156] (first compound max 1 µM, 7x7, partner max 1 µM) please.
Reply: -0.0296
